These data points were gathered from patent US8778871B2.

Tested on: hOT7T175 (Homo sapiens, UniProt Q969F8)
Construct: expressed in transfected cells
Sequence (Q969F8 whole entry L364H): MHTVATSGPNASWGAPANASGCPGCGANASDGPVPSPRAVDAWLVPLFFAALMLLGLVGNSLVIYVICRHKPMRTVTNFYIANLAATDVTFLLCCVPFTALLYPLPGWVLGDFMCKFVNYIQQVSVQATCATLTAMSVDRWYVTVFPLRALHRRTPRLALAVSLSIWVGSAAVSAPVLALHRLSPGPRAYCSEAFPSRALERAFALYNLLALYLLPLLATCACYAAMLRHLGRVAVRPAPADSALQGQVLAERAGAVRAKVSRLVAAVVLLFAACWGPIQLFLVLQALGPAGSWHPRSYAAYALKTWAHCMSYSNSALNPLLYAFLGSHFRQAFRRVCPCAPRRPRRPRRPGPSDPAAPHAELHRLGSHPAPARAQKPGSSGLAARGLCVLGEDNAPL
Test method notes: Intracellular Ca ion level-increasing activity using FLIPR (180 seconds; specific activity to Metastin (1-54))
Type: cell-based
Test parameters: hOT7T175/CHO, change in intracellular calcium ion level for 180 seconds, Tables 21-23
Recorded endpoint: intracellular Ca ion level-increasing activity [specific activity to Metastin (1-54)]
Keep it simple and answer with nothing but the number.

// known answers, use as guide
Query: Give the value of intracellular Ca ion level-increasing activity [specific activity to Metastin (1-54)] reported for the following: 3-Phenylpropionyl-Asn-Ser-Trp-AzaGly-Leu-Arg(Me)-Trp-NH2 [Compound No. 507]
Response: 5

Query: Tell me intracellular Ca ion level-increasing activity [specific activity to Metastin (1-54)] reported for D-Tyr-D-Pya(4)-Thr-Ser-Phe-AzaGly-Leu-Arg(Me)-Trp-NH2 [Compound No. 493]
Response: 2

# next substance below
Query: Report measured intracellular Ca ion level-increasing activity [specific activity to Metastin (1-54)]; entry is D-Tyr-Pya(4)-Ala-Ser-Phe-AzaGly-Leu-Arg(Me)-Trp-NH2 [Compound No. 502]
Response: 10
